Data origin, for the record: ChEMBL document CHEMBL1201862

# System: T47D
# assay_notes: NCI tumour cell line growth inhibition, 48 h
Calls of active or inactive are those of the source. Cut-off read from the data, not from the text of the source: active = GI50 up to about 1.1 µM and inactive = higher.
// allowed return values: active, inactive

INPUT: Each compound tested received a call. Report the one for `COc1ccc2nc3c4c(nccc4c2c1)-c1ncccc1C3=O` .
OUTPUT: active

INPUT: What outcome does the record of this test show for `C[C@]12CC[C@@H]3c4ccc(O)cc4CC[C@H]3[C@@H]1CC[C@@H]2OC(=O)CCc1ccccc1` ?
OUTPUT: inactive

INPUT: Dear all, I need the recorded test outcome for `CC(=O)O[C@H]1C(=O)N(c2cc3c4ccccc4ccc3c3ccccc23)[C@@H]1c1ccccc1` , thank you.
OUTPUT: inactive

INPUT: Hi, do you know how `CC(=O)Nc1ccc2c(c1)[nH]c(=O)c1cc(Cl)ccc12` came out in this test?
OUTPUT: inactive

INPUT: Give the logged outcome of this assay for the following compound: Nc1ncnc2c1ncn2C1C=CC(COS(N)(=O)=O)C1 (stereo not given)
OUTPUT: inactive

INPUT: Tell me the recorded outcome of this test for COc1ccc(N2C(=O)/C(=C\c3cccc(Oc4ccccc4)c3)S(=O)(=O)C2c2ccccc2)cc1 (stereo not given) .
OUTPUT: inactive

INPUT: Could you check what this test reported for `O=S(=O)(O)c1cc(/N=N/c2cc(S(=O)(=O)O)c3ccccc3c2O)ccc1/C=C/c1ccc(/N=N/c2cc(S(=O)(=O)O)c3ccccc3c2O)cc1S(=O)(=O)O` ?
OUTPUT: inactive

INPUT: Tell me the recorded outcome of this test for `CCc1n[nH]c(=O)n1/N=C/c1ccccc1Cl` .
OUTPUT: inactive

INPUT: For CCN1CC2(COC)C(O)CC(OC)C34C5CC6(O)C(OC)C=C(C5C6OC(=O)c5ccc(OC)c(OC)c5)C(C(OC)C23)C14 (stereo not given) , which call appears in the assay record?
OUTPUT: inactive

INPUT: Which outcome was entered for the compound `O=C1CCCC/C1=C1/SC(=N/c2ccccc2)/C(=N\c2ccccc2)N1c1ccccc1` in this test?
OUTPUT: inactive

* * *

# System: M14
# assay_notes: NCI tumour cell line growth inhibition, 48 h
Calls of active or inactive are those of the source. No stated cut-off is given here; in the data, active = GI50 up to about 1.1 µM and inactive = higher.
Would you mind answering with one of these outcomes? Yes for active, No for inactive

INPUT: Which outcome was entered for the compound N#CC(C(=N/O)/C(=N\O)C(C#N)c1ccccc1)c1ccccc1 (configuration not stated) in this test?
OUTPUT: No

INPUT: # lookup: test call for CN(C)CCNC1=Nc2ccccc2C(=O)N2CSCC12 (configuration not stated)
OUTPUT: No

INPUT: What is the recorded call for this compound in the test? `Cc1nc2c(=S)n(C)ncc2[nH]1`
OUTPUT: No

INPUT: Would you mind telling me which call this test gave `Nc1ccc2nc(NCc3ccc(F)cc3)cnc2c1` ?
OUTPUT: No

INPUT: // return assay outcome for `O=C1c2ccccc2C(=O)N1C/C=N/NS(=O)(=O)c1ccc(Cl)cc1`
OUTPUT: No

INPUT: Identify the outcome logged in this assay for the compound shown: N=C(N)NCCCC(NCc1c2ccccc2nc2ccccc12)C(=O)O (configuration not stated)
OUTPUT: No

INPUT: I would be grateful if you could indicate the recorded call for `Cc1ccc(S(=O)(=O)c2ccccc2[N+](=O)[O-])cc1` .
OUTPUT: No

INPUT: Record lookup: outcome of this test for CCOC(=O)NC1C2CC(=O)OC(O2)C1OC(C)=O (configuration not stated) ?
OUTPUT: No

INPUT: Hi, sorry to bother you, what did the test record for `COC(=O)c1cccc(COc2ccc([N+](=O)[O-])cc2Cl)c1` ?
OUTPUT: No

INPUT: // outcome(item) with item = O=C1NN=C2C=C(c3ccc(Cl)cc3)CC(c3cccc(Br)c3)C12 (configuration not stated)
OUTPUT: No

INPUT: Assay outcome for `COc1ccc2nc3c4c(nccc4c2c1)-c1ncccc1C3=O` : what was it?
OUTPUT: Yes

INPUT: Just curious, what result did `c1ccc(Cc2cccc3cc(-c4ccc(-c5ccccc5)cc4)[nH]c23)cc1` get here?
OUTPUT: No

INPUT: Write down the call the test reported for this compound. Item: `CCOC(=O)COc1cccc2c1C(=O)CCO2`
OUTPUT: No

INPUT: Hi, do you know how `CC(=O)O[C@H]1C(=O)N(c2cc3c4ccccc4ccc3c3ccccc23)[C@@H]1c1ccccc1` came out in this test?
OUTPUT: No

INPUT: Could you please tell me the result logged for COc1cccc(C2c3cc4c(cc3OC(NNS(=O)(=O)c3ccc(C)cc3)C2C)OCO4)c1O (configuration not stated) in this assay?
OUTPUT: No

INPUT: What call does the record list for `C=C1C(=O)O[C@@H]2O[C@@]3(C)CC[C@H]4[C@H](C)CC[C@@H]1[C@@]24O3` ?
OUTPUT: No

INPUT: Look up the recorded call for `C#CC1(O)CCCCCCCCC2(CCCCCCCC1)OCCO2` in this test.
OUTPUT: No

INPUT: Returns: the outcome recorded for NC(CC(O)(c1ccccc1)c1ccccc1)c1ccccc1S (configuration not stated) in this assay.
OUTPUT: No

INPUT: Per the assay record, what outcome was assigned to `COc1cc(/C=N/N=C(\N)NO)cc(Cl)c1O` ?
OUTPUT: No

INPUT: Query: recorded result category for `Cc1[nH]c(=O)nc(N(CCO)/N=C/c2ccccc2Cl)c1C(=O)Nc1cc(Cl)cc(Cl)c1` in this test
OUTPUT: No

INPUT: GET /call?item= OC(COc1cccc2ccccc12)CN1CCOCC1 (configuration not stated) returns the recorded outcome of this test.
OUTPUT: No

INPUT: How was `COc1cc(C(=O)N(C(=S)OC23CC4CC(CC(C4)C2)C3)c2ccccc2)cc(OC)c1OC` classified in this test?
OUTPUT: No

INPUT: Short answer needed: outcome of this test for `O=c1oc2ccc([N+](=O)[O-])cc2c(Nc2ccc3c(c2)Oc2ccccc2O3)c1[N+](=O)[O-]` ?
OUTPUT: No

INPUT: # fetch the recorded call for `COc1c(N2CCCCC2)c2c(=O)c3ccccc3oc2c2c3ccccc3n(C)c12` here
OUTPUT: No

INPUT: What call does the record list for `CCOP(=O)(/C=C/n1cnc2c(=O)n(C(C)=O)c(N)nc21)OCC` ?
OUTPUT: No

INPUT: In this assay, the call recorded for `COc1cccc(-c2cc(O)c3cc(N4CCN(C)CC4)ccc3n2)c1` was what?
OUTPUT: No

INPUT: For `Cc1nc2ccccc2c(=O)n1/N=C(\N=N\c1ccc(Cl)cc1)c1cccc(-c2ccco2)c1` , what call appears in the results of this test?
OUTPUT: No

INPUT: Recorded test call requested for `CCCSS[C@H]1NC(=O)[C@H]1NC(=O)COc1ccccc1`
OUTPUT: No

INPUT: Recorded test call requested for COc1ccc2c(c1)CC[C@@H]1C2CC[C@]2(C)C(=N\O)/C(=N/O)CC12 (some centres not stated)
OUTPUT: No

INPUT: Call for entry `S=C(/N=c1\sc(NCc2ccccc2)nc2sc3c(c12)CCN(N1CCc2c(sc4nc(NCc5ccccc5)s/c(=N\C(=S)NCc5ccccc5)c24)C1)C3)NCc1ccccc1` :
OUTPUT: No

INPUT: Short answer needed: outcome of this test for `O=C1c2cccc(O)c2C(=O)c2c(O)cccc21` ?
OUTPUT: No

INPUT: Recorded test outcome, item CC(c1ccccc1)C(O)S(=O)(=O)O (configuration not stated)
OUTPUT: No

INPUT: Which outcome was assigned to `Cc1cc(N(CCC#N)CCC#N)ccc1/C=C(\NC(=O)/C=C/c1ccccc1)C(=O)N=[N+]=[N-]` in this test?
OUTPUT: No

INPUT: GET /call?item= CCCCCCCC/C=C\CCCCCCC(F)C(=O)O (configuration not stated) returns the recorded outcome of this test.
OUTPUT: No

INPUT: Recorded test call requested for CCN1CC2(COC)C(O)CC(OC)C34C5CC6(O)C(OC)C=C(C5C6OC(=O)c5ccc(OC)c(OC)c5)C(C(OC)C23)C14 (configuration not stated)
OUTPUT: No

INPUT: State the result this test recorded for CCOC(=O)NC(=O)c1cn(C2OC(CO)C(O)C2O)c(=O)[nH]c1=O (configuration not stated) .
OUTPUT: No

INPUT: # lookup: test call for `CN[C@@H](C)[C@@H](N)c1ccccc1`
OUTPUT: No

* * *

# Tested on: HCT-116
# assay_notes: NCI tumour cell line growth inhibition, 48 h
Activity calls are given as the source filed them. Rule as the data show it: active = GI50 up to about 1.1 µM and inactive = higher.
property_label: GI50

// `Cc1c(N2C(=O)/C(=C/c3ccc(N(CCC#N)CCC#N)cc3)N=C2c2ccccc2)c(=O)n(-c2ccccc2)n1C` : GI50 value = > 100 µM (inactive)

GI50 reading for `Cc1cc(S(=O)(=O)Nc2n[nH]c(-c3ccc(Cl)cc3)n2)c(SSc2cc(Cl)c(C)cc2S(=O)(=O)Nc2n[nH]c(-c3ccc(Cl)cc3)n2)cc1Cl` : 28.5 µM (inactive)

The compound listed as `NCCCN(CCCN(C(=O)Nc1ccccc1)c1ccccc1)C(=O)Nc1ccccc1` shows GI50 equal to 18.6 µM (inactive)

Consider Nc1ncnc2c1ncn2C1C=CC(COS(N)(=O)=O)C1 (centres undefined) . Its measured GI50 is 9.38 µM (inactive)

GI50 reported for this compound `c1ccc2c(c1)c1c(n2CCOCCN2CCOCC2)CCCC1` : 29.8 µM (inactive)

Documented GI50 of CCOC(=O)c1cc(C2CCN(Cc3ccccc3)C2=O)c(C(=O)C(=[N+]=[N-])C(C)=O)[nH]1 (centres undefined) : > 100 µM (inactive)

// field: GI50; key: `O=C(CC(=O)c1cccc([N+](=O)[O-])c1)C(=O)Nc1ccccc1` ; value = > 100 µM (inactive)

CC(C)(CN1CCCCC1)C(=O)CC(SCCS(=O)(=O)O)c1ccc(Cl)c(Cl)c1 (centres undefined) has a reported GI50 of 2.59 µM (inactive)

GI50 in this record for CC12CCC3c4ccc(O)cc4CCC3C1C/C(=N\O)C2O (centres undefined) : > 100 µM (inactive)

The compound Cc1cc([N+](=O)[O-])ccc1NC(=O)C(=O)C(C(=O)c1ccccc1-c1ccccc1)C1OC(=O)c2ccccc21 (centres undefined) showed GI50 equal to 16 µM (inactive)

Value of measured GI50 for the entry `CC1(C)C(=S)C(C)(C)C1=S` : > 100 µM (inactive)

Memo: COC(=O)CCC(NC(=S)N/N=C(\C)c1ccco1)C(=O)OC (centres undefined) , reported GI50: > 100 µM (inactive)

Summary for this compound, `CC(C)(C)/C(=N\Nc1nc2ccccc2[nH]1)c1ccccn1` : GI50 is 22.8 µM (inactive)

Sure, the documented GI50 for `C=C1C(=O)O[C@@H]2O[C@@]3(C)CC[C@H]4[C@H](C)CC[C@@H]1[C@@]24O3` is 10.8 µM (inactive)

Lab note: measured GI50 of `CC(=O)Oc1cccc2c1C(=O)CCCC2` was > 100 µM (inactive)

The recorded GI50 for `O=C1N/N=C\Nc2ccc(cc2)S(=O)(=O)c2ccc(cc2)/N=C\NNC1=O` is > 100 µM (inactive)

Record summary for `CCCSS[C@H]1NC(=O)[C@H]1NC(=O)COc1ccccc1` : reported GI50 = 10.3 µM (inactive)

Lab note: measured GI50 of `COC(=O)[C@@H](NC(=O)N(CCC#N)CCCN(C(=O)N[C@H](Cc1ccccc1)C(=O)OC)c1ccccc1)C(C)C` was > 100 µM (inactive)

# GI50 (compound: `O=[As](O)(O)c1ccc(/N=N/c2ccc([As](=O)(O)O)cc2)cc1` ) is > 100 µM (inactive)

Entry CC1CC(=O)C(CC(=O)O)C1C(C(=O)C(=O)Nc1c(C#N)cccc1[N+](=O)[O-])[N+](=O)[O-] (centres undefined) — recorded GI50 = > 100 µM (inactive)

Recorded GI50 (compound `C1CSCCSCCSCCSC1` ): > 100 µM (inactive)

Record summary for `COc1cnnc2c(C)c(-c3ccccc3)nn12` : reported GI50 = 77.1 µM (inactive)

The compound listed as O=[N+]([O-])c1ccc(C2NC(=S)NC3c4cc([N+](=O)[O-])ccc4CCCC23)cc1 (centres undefined) has a reported GI50 of > 100 µM (inactive)

Lab book: GI50 of COc1cc(OC)c(C2c3cc4c(cc3OC(N3CCCC3)C2C)OCO4)c(OC)c1 (centres undefined) noted as 3.98 µM (inactive)

`CCc1nnc2sc(-c3ccc(-c4ccc(Cl)cc4Cl)o3)nn12` has a reported GI50 of 62.5 µM (inactive)

`CC1=NN(C(=O)CSc2nc3ccc(I)cc3c(=O)n2Cc2ccccc2)C(=O)C1` has a reported GI50 of 29.9 µM (inactive)

Lookup result for Cc1ccc(-c2cnc(NC3OC(COC(=O)c4ccccc4)C(OC(=O)c4ccccc4)C(OC(=O)c4ccccc4)C3OC(=O)c3ccccc3)s2)cc1 (centres undefined) ; measured GI50: > 100 µM (inactive)

The recorded GI50 for `Cc1cc(-c2nc3c(F)cccc3s2)ccc1N` is 85.1 µM (inactive)

For record `Cc1ccc(-c2nc3cc(F)c(N4CCN(C)CC4)cc3[nH]2)cc1` the listed GI50 is 19.6 µM (inactive)
